Target: Muscarinic acetylcholine receptor M1 (Rattus norvegicus)
Experiment: blockers of ACh-evoked M1 calcium signal – CHO cells, Fluo-4 calcium, duplicate, confirmation (AID 677);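 note: raw fluorescence intensity difference in arbitrary instrument units and not normalized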
Conditions: ACh EC80 antagonism, at 10 µM
Hit rate of the full screen: of about 1,700 compounds, about 720 (42%) were called active.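 Rule for the calls: active = calcium response below the same-plate mean of wells given acetylcholine alone at its 80%-effect dose, minus 3 SD; inactive = the rest.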 The set was probably picked from earlier hits. A selection follows.
Respond with a class label; see label 1 = active, label 0 = inactive

Cc1ccc(-c2noc(CCC(=O)Nc3ccccc3N3CCN(C)CC3)n2)cc1 ... label 1
CCCCOc1ccc(C(C)(O)CCN2CCOCC2)cc1 (configuration not stated) ... label 1
Cc1c(C)c2cc3c4c(oc3c(C)c2oc1=O)CCCC4 ... label 0
CCOC(=O)C1CCN(Cc2coc3ccc(Cl)cc3c2=O)CC1 ... label 1
O=C(c1ccc(-n2cnnn2)cc1)N1CCN(C(c2ccccc2)c2ccccc2)CC1 ... label 1

Problem: Outcome? CSc1nnc2c(n1)OC(c1ccsc1)N(C(C)=O)c1ccccc1-2 (configuration not stated)
Result: label 1

Problem: Outcome? CN(C)CCOC(=O)C(c1ccccc1)C1(O)CCCC1 (configuration not stated)
Result: label 1

Problem: Outcome? O=S(=O)(CCc1nc2ccccc2o1)c1ccc(Cl)cc1
Result: label 0

Problem: Outcome? Cc1ccsc1-c1nc(CSCC(=O)NCCN2CCCC2)c(C)o1
Result: label 1

---

Target: Muscarinic acetylcholine receptor M1 (Rattus norvegicus)
Test: blockers of ACh-evoked M1 calcium signal – CHO cells, Fluo-4 calcium, duplicate, confirmation (AID 677);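 note: raw fluorescence intensity difference in arbitrary instrument units and not normalized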
Conditions: ACh EC80 antagonism, at 10 µM, stronger effect = lower value
The campaign covered roughly 1,700 compounds. About 720 (42%) were called active. So high a share suggests a set chosen from earlier hits. Not all results are given here.
Rule: measured calcium response (max-min fluorescence) below 500 gets TRUE; anything equal to or greater than 500 gets FALSE.

Study these solved cases before continuing.
COC(=O)c1ccc(C2C3=C(Nc4nnnn42)c2ccccc2OC3)cc1 (stereo unspecified) ... FALSE
C=CCSc1nc2ccccc2[nH]1 ... FALSE
COc1ccc(-c2nnn(Cc3nc(N)nc(N4CCCCC4)n3)n2)cc1 ... FALSE

Problem: Strictly below 500: is that where calcium response (max-min fluorescence) of CC1(C)Cc2c(sc3nc4n(c(=N)c23)CCCCC4)CO1 sits?
Result: TRUE

Problem: Strictly below 500: is that where calcium response (max-min fluorescence) of CCOC(=O)c1c(-c2ccc(C)cc2C)csc1NC(=O)CSc1nnnn1C sits?
Result: FALSE

Problem: Strictly below 500: is that where calcium response (max-min fluorescence) of O=C(NCCCN1CCCCCC1)C1CC(=O)N(C2CCCC2)C1 (stereo unspecified) sits?
Result: TRUE

---

Target: Muscarinic acetylcholine receptor M1 (Rattus norvegicus) (UniProt P08482)
Sequence (P08482 whole entry, looked up): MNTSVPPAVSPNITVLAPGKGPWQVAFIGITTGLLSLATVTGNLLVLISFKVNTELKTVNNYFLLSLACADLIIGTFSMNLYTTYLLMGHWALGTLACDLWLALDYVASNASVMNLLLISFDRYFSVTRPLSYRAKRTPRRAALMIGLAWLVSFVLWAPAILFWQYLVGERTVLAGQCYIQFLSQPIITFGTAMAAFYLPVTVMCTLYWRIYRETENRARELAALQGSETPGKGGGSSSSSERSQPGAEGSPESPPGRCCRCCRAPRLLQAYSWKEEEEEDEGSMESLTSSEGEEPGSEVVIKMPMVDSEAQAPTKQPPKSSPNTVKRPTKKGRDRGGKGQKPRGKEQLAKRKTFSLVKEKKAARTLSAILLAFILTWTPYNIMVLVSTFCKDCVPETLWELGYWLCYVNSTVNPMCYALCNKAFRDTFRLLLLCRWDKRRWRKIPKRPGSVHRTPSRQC
Assay: blockers of ACh-evoked M1 calcium signal – CHO cells, Fluo-4 calcium, duplicate, confirmation (AID 677);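 note: raw fluorescence intensity difference in arbitrary instrument units and not normalized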
Conditions: ACh EC80 antagonism, at 10 µM, stronger effect = lower value
Among all 1,700 compounds or so, about 720 (42%) were called active. The set was probably picked from earlier hits. The list is a sample of the results.
Rule: measured calcium response (max-min fluorescence) below 500 gets True; anything equal to or greater than 500 gets False.

Study these solved cases before continuing.
CCOC(=O)N1CCN(S(=O)(=O)c2cc(Br)cc3c2N(C(=O)C2CC2)CC3)CC1 ... False
CCOC(=O)c1c(NC(=O)CSc2nnc(CN3CCOCC3)n2C)sc2c1CCCC2 ... False
CC1(C)CN=C(N2CCN(c3ncnc4sc5c(c34)CCCC5)CC2)S1 ... True
c1ccc(-c2cc(-c3nnc4sc(-c5ccccn5)nn34)[nH]n2)cc1 ... True
COc1cccc(OCCOc2cccc(/C=N/n3cnnc3)c2)c1 ... False
CCOC(=O)N1CCN(CC(=O)Nc2cc(C)nn2-c2nc3ccccc3s2)CC1 ... False
COc1cc(Cl)c(C)cc1NC(=O)CSc1nnc(-c2ccco2)n1CC(C)C ... False

# input for lookup
Problem: Strictly below 500: is that where calcium response (max-min fluorescence) of CCCCCOC(=O)NCCOC(=O)Nc1ccc(C(=O)OCC)cc1 sits?
Result: False
